- Tested on: HCT-116
- measurementDescription: Antiproliferative activity against p53 expressing human HCT116 cells at IC50 after 3 to 96 hrs by MTS assay in presence of 10 to 50 uM glucose
- Type: functional, cell-based
The source made the active and inactive calls. The calls are words filed in the database; no cut-off is given here.

[
  {
    "smilesText": "CC(=O)OC[C@H]1O[C@@H](Sc2ccc(NC(=O)c3ccc4ccc(C)nc4c3O)cn2)[C@H](OC(C)=O)[C@@H](OC(C)=O)[C@@H]1OC(C)=O",
    "target": "HCT-116",
    "Activity": "inactive"
  },
  {
    "smilesText": "CC(=O)OC[C@H]1O[C@@H](Sc2ccc(NC(=O)c3ccc4ccc(C)nc4c3O)cn2)[C@H](OC(C)=O)[C@@H](OC(C)=O)[C@H]1OC(C)=O",
    "target": "HCT-116",
    "Activity": "inactive"
  },
  {
    "smilesText": "Cc1ccc2ccc(C(=O)N[C@@H]3O[C@H](COCc4ccccc4)[C@H](OCc4ccccc4)[C@H](OCc4ccccc4)[C@H]3OCc3ccccc3)c(O)c2n1",
    "target": "HCT-116",
    "Activity": "inactive"
  },
  {
    "smilesText": "CC(=O)OC[C@H]1O[C@@H](Sc2ccc(NC(=O)c3ccc4ccc(C)nc4c3O)cc2)[C@H](OC(C)=O)[C@@H](OC(C)=O)[C@H]1OC(C)=O",
    "target": "HCT-116",
    "Activity": "inactive"
  }
]

----------
- System: NHDF
- measurementDescription: Cytotoxicity against human NHDF cells after 96 hrs by MTS assay
- Assay type: cell-based
attributeMeasured: pIC50
pIC50 here is simply -log10 of the concentration when that concentration is written in mol/L.

[
  {
    "smilesText": "COc1cccc2c1C(=O)c1c(O)c3c(c(O)c1C2=O)C[C@@](O)(C(=O)CO)C[C@@H]3O[C@H]1C[C@H](N)[C@H](O)[C@H](C)O1",
    "attributeMeasured": "pIC50",
    "observedValue": 5.47
  },
  {
    "smilesText": "Cc1ccc2ccc(C(=O)N[C@@H]3O[C@H](COCc4ccccc4)[C@H](OCc4ccccc4)[C@H](OCc4ccccc4)[C@H]3OCc3ccccc3)c(O)c2n1",
    "attributeMeasured": "pIC50",
    "observedValue": 4.73
  },
  {
    "smilesText": "CC(=O)OC[C@H]1O[C@@H](Sc2ccc(NC(=O)c3ccc4ccc(C)nc4c3O)cc2)[C@H](OC(C)=O)[C@@H](OC(C)=O)[C@H]1OC(C)=O",
    "attributeMeasured": "pIC50",
    "observedValue": 4.88
  },
  {
    "smilesText": "CC(=O)OC[C@H]1O[C@@H](Sc2ccc(NC(=O)c3ccc4ccc(C)nc4c3O)cn2)[C@H](OC(C)=O)[C@@H](OC(C)=O)[C@H]1OC(C)=O",
    "attributeMeasured": "pIC50",
    "observedValue": 5.03
  },
  {
    "smilesText": "CC(=O)OC[C@H]1O[C@@H](Sc2ccc(NC(=O)c3ccc4ccc(C)nc4c3O)cn2)[C@H](OC(C)=O)[C@@H](OC(C)=O)[C@@H]1OC(C)=O",
    "attributeMeasured": "pIC50",
    "observedValue": 4.94
  }
]

Identify pIC50 associated with the compound CC(=O)OC[C@H]1O[C@@H](NC(=O)c2ccc3ccc(C)nc3c2O)[C@H](OC(C)=O)[C@@H](OC(C)=O)[C@@H]1OC(C)=O 4.63

In one line, give reported pIC50 of the entry CC(=O)OC[C@H]1O[C@@H](Sc2ccc(NC(=O)c3ccc4ccc(C)nc4c3O)cc2)[C@H](OC(C)=O)[C@@H](OC(C)=O)[C@@H]1OC(C)=O . 4.91

----------
- Test system: HCT-116
- measurementDescription: Induction of apoptosis in p53 expressing human HCT116 cells assessed as caspase-3/7 activation at IC50 after 30 to 48 hrs by luminescence assay
- Assay type: functional, cell-based
Activity calls are given as the source filed them. No cut-off for these calls is given here.
Hi! Could you answer with just one of these? active, inactive

Solved cases (3 shown):
[
  {
    "smilesText": "CC(=O)OC[C@H]1O[C@@H](Sc2ccc(NC(=O)c3ccc4ccc(C)nc4c3O)cc2)[C@H](OC(C)=O)[C@@H](OC(C)=O)[C@H]1OC(C)=O",
    "labelValue": "active"
  },
  {
    "smilesText": "CC(=O)OC[C@H]1O[C@@H](Sc2ccc(NC(=O)c3ccc4ccc(C)nc4c3O)cn2)[C@H](OC(C)=O)[C@@H](OC(C)=O)[C@@H]1OC(C)=O",
    "labelValue": "inactive"
  },
  {
    "smilesText": "Cc1ccc2ccc(C(=O)N[C@@H]3O[C@H](COCc4ccccc4)[C@H](OCc4ccccc4)[C@H](OCc4ccccc4)[C@H]3OCc3ccccc3)c(O)c2n1",
    "labelValue": "active"
  }
]

What did this assay record as the result for CC(=O)OC[C@H]1O[C@@H](NC(=O)c2ccc3ccc(C)nc3c2O)[C@H](OC(C)=O)[C@@H](OC(C)=O)[C@@H]1OC(C)=O ? active

So what was the verdict on CC(=O)OC[C@H]1O[C@@H](Sc2ccc(NC(=O)c3ccc4ccc(C)nc4c3O)cc2)[C@H](OC(C)=O)[C@@H](OC(C)=O)[C@@H]1OC(C)=O in this test? inactive

Query: recorded result category for CC(=O)OC[C@H]1O[C@@H](Sc2ccc(NC(=O)c3ccc4ccc(C)nc4c3O)cn2)[C@H](OC(C)=O)[C@@H](OC(C)=O)[C@H]1OC(C)=O in this test inactive

----------
- Test system: Calf thymus DNA
- measurementDescription: Binding affinity to calf thymus DNA assessed as hypochromism at 3 to 25 uM after 1.5 hrs by UV-visible spectrophotometry
- Format: nucleic-acid assay
- particulars: Bos taurus
Reported Activity values are given for each entry in this list.
# unit: % | format: bare number

[
  {
    "smilesText": "CC(=O)OC[C@H]1O[C@@H](Sc2ccc(NC(=O)c3ccc4ccc(C)nc4c3O)cc2)[C@H](OC(C)=O)[C@@H](OC(C)=O)[C@H]1OC(C)=O",
    "target": "Calf thymus DNA",
    "u": "%",
    "observedValue": 17.2
  }
]

Retrieve Activity measured for CC(=O)OC[C@H]1O[C@@H](Sc2ccc(NC(=O)c3ccc4ccc(C)nc4c3O)cn2)[C@H](OC(C)=O)[C@@H](OC(C)=O)[C@@H]1OC(C)=O and print it. 41.5

----------
- Test system: Calf thymus DNA
- measurementDescription: Binding affinity to calf thymus DNA assessed as hypochromism at 3 to 25 uM after 1.5 hrs by UV-visible spectrophotometry
- Assay type: nucleic-acid assay
- particulars: Bos taurus
Reported Activity values follow for various compounds
Supply the numeric figure in %, leaving out any unit text.

[
  {
    "smilesText": "CC(=O)OC[C@H]1O[C@@H](Sc2ccc(NC(=O)c3ccc4ccc(C)nc4c3O)cn2)[C@H](OC(C)=O)[C@@H](OC(C)=O)[C@H]1OC(C)=O",
    "Activity [%]": 26.1
  }
]

Determine its reported Activity: Cc1ccc2ccc(C(=O)N[C@@H]3O[C@H](COCc4ccccc4)[C@H](OCc4ccccc4)[C@H](OCc4ccccc4)[C@H]3OCc3ccccc3)c(O)c2n1 9

For the compound CC(=O)OC[C@H]1O[C@@H](Sc2ccc(NC(=O)c3ccc4ccc(C)nc4c3O)cc2)[C@H](OC(C)=O)[C@@H](OC(C)=O)[C@@H]1OC(C)=O , report Activity. 10.7

# return recorded Activity for entry CC(=O)OC[C@H]1O[C@@H](NC(=O)c2ccc3ccc(C)nc3c2O)[C@H](OC(C)=O)[C@@H](OC(C)=O)[C@@H]1OC(C)=O 16.2
